Dmax values, listed per item
# EXPERIMENTAL SYSTEM: BRAF G466V (Homo sapiens, UniProt P15056, G466V)
# Construct: Horizon Discovery (HCT-116 BRAF−/− cells); host or cells: HCT-116 BRAF−/− cells, clone 8, lentiviral transduction
# Sequence (P15056 whole entry G466V): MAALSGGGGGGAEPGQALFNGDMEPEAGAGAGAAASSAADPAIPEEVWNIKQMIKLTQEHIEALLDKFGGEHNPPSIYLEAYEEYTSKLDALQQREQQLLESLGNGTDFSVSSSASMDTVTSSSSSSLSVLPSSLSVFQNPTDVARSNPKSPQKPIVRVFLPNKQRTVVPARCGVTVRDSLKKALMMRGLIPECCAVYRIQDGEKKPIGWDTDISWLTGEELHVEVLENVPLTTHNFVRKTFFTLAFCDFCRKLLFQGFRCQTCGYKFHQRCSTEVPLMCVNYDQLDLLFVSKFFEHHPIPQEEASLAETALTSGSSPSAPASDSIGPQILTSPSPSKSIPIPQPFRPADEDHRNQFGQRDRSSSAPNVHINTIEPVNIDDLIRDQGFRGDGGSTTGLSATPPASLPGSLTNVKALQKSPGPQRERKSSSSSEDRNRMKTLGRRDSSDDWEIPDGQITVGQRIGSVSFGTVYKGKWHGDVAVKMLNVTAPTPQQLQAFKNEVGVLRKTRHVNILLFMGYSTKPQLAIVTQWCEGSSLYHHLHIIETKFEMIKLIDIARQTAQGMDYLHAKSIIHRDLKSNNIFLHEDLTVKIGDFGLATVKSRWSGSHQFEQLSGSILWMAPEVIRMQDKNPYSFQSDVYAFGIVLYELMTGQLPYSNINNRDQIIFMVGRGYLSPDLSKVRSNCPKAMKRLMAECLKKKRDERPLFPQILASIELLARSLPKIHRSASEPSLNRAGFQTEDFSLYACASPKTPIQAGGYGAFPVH
# PROTOCOL DETAILS: BRAF HiBiT degradation assay, C-terminal HiBiT-tagged BRAF G466V overexpressed in HCT-116 BRAF−/− cells (clone 8), Nano-Glo HiBiT Lytic assay
# Format: cell-based
# EXPERIMENTAL SETUP: HCT-116; BRAF G466V; percentage protein degraded at maximal compound effect relative to DMSO

MOLECULE: CCCS(=O)(=O)Nc1cccc(-c2nc(C(C)(C)C)sc2-c2ccnc(Nc3ccc(N4CCN(C(=O)C5CCN(c6ccc(C7CCC(=O)NC7=O)cc6)CC5)CC4)cc3)n2)c1F (racemic) [Compound 38]
Dmax: < 30%
//
MOLECULE: CCCS(=O)(=O)Nc1cccc(-c2nc(C3CCN(C(=O)C4CCN(C(=O)C5CCN(c6ccc(C7CCC(=O)NC7=O)cn6)CC5)CC4)CC3)sc2-c2ccnc(N[C@H](C)CO)n2)c1F (mixture of isomers) [Compound 180]
Dmax: 30 to 70%
//
MOLECULE: CCCS(=O)(=O)Nc1cccc(-c2cn(-c3ccc(C4CCN(CC5CCN(c6ccc(C7CCC(=O)NC7=O)cc6)CC5)CC4)cc3)nc2-c2ccncc2)c1F (racemic) [Compound 25]
Dmax: 30 to 70%
